TARGET OR TEST SYSTEM: JAK3(h) (Homo sapiens)
Sequence (P52333 1-1124): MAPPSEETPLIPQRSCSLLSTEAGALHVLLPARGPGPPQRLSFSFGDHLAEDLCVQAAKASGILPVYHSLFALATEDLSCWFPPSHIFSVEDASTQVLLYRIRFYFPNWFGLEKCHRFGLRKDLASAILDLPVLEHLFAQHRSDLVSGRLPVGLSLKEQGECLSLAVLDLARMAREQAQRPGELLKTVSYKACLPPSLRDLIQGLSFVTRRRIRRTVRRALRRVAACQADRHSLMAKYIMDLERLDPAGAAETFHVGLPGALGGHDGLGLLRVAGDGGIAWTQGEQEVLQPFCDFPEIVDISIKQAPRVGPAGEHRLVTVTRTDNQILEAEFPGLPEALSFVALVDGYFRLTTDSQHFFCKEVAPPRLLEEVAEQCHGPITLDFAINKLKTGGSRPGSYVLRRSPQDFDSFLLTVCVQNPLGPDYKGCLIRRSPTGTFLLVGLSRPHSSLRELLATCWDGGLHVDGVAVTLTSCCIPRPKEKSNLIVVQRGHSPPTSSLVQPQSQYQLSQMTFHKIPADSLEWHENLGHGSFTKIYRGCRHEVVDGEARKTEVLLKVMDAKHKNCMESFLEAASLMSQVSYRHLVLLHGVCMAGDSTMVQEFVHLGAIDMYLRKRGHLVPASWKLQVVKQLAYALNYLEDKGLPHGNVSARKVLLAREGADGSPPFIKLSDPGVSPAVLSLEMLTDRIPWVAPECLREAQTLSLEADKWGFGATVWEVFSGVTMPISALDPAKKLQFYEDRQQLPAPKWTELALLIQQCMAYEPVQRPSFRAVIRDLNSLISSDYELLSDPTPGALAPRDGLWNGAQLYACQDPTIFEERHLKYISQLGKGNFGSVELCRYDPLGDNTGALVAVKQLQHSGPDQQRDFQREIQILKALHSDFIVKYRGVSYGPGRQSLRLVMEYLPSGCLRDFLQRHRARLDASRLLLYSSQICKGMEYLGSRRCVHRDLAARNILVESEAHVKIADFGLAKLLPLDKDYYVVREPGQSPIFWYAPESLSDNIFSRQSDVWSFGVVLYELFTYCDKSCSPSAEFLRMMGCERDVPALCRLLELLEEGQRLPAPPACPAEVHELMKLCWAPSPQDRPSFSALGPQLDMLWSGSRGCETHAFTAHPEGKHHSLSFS
OUTCOME MEASURE: IC50 (nM)
Field: numeric (nM). Do not append units.

So for Cn1cc(-c2cn3nccc3c(-c3cnn([C@]4(CC#N)CC5(C[C@H](C#N)C5)C4)c3)n2)cn1 (stereo partly shown) , the logged IC50 turned out to be 189

###

TARGET OR TEST SYSTEM: JAK1(h) (Homo sapiens, UniProt P23458)
Sequence (P23458 whole entry): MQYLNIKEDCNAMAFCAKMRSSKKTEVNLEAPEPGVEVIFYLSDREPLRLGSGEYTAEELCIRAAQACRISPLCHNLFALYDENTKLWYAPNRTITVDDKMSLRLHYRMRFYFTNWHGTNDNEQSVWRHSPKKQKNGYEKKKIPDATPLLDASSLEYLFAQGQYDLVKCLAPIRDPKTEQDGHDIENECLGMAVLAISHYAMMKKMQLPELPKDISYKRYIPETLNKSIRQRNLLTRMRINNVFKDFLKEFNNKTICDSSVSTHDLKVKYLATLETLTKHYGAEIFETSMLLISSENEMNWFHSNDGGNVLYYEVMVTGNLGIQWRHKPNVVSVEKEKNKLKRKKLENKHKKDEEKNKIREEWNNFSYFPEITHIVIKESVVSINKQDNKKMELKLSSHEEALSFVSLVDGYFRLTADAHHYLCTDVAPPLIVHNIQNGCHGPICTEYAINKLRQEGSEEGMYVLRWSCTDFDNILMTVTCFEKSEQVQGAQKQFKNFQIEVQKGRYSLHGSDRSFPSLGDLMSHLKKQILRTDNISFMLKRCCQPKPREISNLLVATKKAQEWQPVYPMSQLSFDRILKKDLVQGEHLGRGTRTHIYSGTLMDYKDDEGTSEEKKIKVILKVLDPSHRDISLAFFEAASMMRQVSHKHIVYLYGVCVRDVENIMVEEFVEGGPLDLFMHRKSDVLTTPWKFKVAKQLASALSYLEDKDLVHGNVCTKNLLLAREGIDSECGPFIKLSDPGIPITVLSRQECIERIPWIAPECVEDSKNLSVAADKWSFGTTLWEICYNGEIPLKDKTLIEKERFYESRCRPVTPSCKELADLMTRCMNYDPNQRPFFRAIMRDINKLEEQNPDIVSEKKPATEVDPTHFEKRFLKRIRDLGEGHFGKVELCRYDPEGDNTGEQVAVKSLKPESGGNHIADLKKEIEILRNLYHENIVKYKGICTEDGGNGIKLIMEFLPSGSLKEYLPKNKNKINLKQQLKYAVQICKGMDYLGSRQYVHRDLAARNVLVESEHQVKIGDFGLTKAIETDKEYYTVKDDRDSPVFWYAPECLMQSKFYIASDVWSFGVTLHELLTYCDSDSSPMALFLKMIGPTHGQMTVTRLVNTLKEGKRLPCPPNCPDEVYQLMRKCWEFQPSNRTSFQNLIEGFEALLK
OUTCOME MEASURE: IC50 (nM)
Number in nM, nothing else.

# IC50 measured on JAK1(h) (Homo sapiens, UniProt P23458) for item Cn1cc(-c2cn3nccc3c(-c3cnn([C@]4(CC#N)CC5(C[C@H](C#N)C5)C4)c3)n2)cn1 (stereo partly shown) = 10

###

TARGET OR TEST SYSTEM: UniProtKB P29597
Sequence (P29597 whole entry): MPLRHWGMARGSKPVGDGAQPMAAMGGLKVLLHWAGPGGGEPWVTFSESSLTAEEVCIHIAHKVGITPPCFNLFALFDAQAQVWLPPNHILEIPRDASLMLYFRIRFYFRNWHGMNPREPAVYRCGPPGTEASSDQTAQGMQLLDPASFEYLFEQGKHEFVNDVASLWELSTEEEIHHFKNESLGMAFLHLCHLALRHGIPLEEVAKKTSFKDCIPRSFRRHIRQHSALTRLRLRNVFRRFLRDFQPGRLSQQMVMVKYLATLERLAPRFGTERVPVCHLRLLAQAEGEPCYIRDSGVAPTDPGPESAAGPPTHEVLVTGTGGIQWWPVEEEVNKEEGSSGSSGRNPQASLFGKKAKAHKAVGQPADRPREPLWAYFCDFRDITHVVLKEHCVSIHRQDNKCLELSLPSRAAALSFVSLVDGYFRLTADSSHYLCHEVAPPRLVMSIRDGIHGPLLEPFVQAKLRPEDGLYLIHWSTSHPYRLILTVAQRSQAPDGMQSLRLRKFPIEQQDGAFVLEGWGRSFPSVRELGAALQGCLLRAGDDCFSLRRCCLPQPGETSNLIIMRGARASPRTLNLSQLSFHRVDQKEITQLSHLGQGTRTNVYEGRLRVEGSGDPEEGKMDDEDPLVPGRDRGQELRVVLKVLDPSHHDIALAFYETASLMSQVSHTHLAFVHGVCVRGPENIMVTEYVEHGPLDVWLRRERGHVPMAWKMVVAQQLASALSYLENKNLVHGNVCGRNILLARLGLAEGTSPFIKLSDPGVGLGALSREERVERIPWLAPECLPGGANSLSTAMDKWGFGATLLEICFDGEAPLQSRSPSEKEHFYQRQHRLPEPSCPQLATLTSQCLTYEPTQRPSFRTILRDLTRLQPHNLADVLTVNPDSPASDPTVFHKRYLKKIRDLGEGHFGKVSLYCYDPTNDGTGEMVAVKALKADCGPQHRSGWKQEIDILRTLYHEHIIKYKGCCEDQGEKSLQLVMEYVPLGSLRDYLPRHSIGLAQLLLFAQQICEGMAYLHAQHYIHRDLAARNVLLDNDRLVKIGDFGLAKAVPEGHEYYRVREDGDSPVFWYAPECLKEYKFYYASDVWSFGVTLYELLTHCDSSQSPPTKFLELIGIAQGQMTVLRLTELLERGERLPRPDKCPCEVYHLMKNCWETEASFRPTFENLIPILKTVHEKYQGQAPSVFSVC
OUTCOME MEASURE: pIC50
The meaning of pIC50 here: minus log10 of the concentration in molar units.

Note to self: pIC50 recorded for Cn1cc(-c2cn3nccc3c(-c3cnn([C@]4(CC#N)CC5(C[C@H](C#N)C5)C4)c3)n2)cn1 (stereo partly shown) [Compound of formula (I)] was 9.05
